Entry source: PubChem BioAssay (Tox21)

Test: A CellTox Green Cytotoxicity Assay to monitor cytotoxicity in HepG2 cells - 32 hour (AID 1224883); further: on the % scale 0 is the no-effect control and ±100 the full control effect; nearly all actives have a fitted effect of over 50% in size
Conditions: CellTox Green fluorescence; series mostly up to 76.8 µM
Results filed as inconclusive are left out. Activity calls are given as the source filed them. The call rests on the fitted dose curve; in most records, active means well fitted activation curve with a large enough effect in the repeat runs; inconclusive means weak or mixed curves; inactive means flat fitted curve, though single readings scatter.
readout_label: cytotoxicity increase

C/C=C/C(=O)CCCC; inactive
Nc1ccc(C(=O)NCC(=O)O)cc1; inactive
O=Cc1ccc(C(=O)O)cc1; inactive
COc1ccc(Cl)cc1C; inactive
CSC(=O)c1cccc2nnsc12; inactive
CCCCNCC; inactive
CCCCCCCCC1CO1 (stereo not given); inactive
NNC(=O)OCc1ccccc1; inactive

Give the value of cytotoxicity increase reported for the following: C=CCCCCCCCCCCCCCC
-0.009% [at 15.8 µM] (inactive)

Give the value of cytotoxicity increase reported for the following: Cc1cc(C)c(N)c(Cl)c1
inactive

* * *

Test: qHTS assay for identifying genotoxic compounds that show differential cytotoxicity against isogenic chicken DT40 cell lines with known DNA damage response pathways - wild type cell line (AID 743012); further: nearly all actives have a fitted effect of over 60% in size
Settings: DT40 wild type chicken cells viability, CellTiter-Glo, 40 h; series mostly up to 68.4 µM
Results filed as inconclusive are left out. The source made the active and inactive calls. Calls follow the shape of the dose curve; as a rule, active = well fitted cell-killing curve with a large enough effect in the repeat runs; inconclusive = weak or mixed curves, or effect the other way; inactive = no such curve, though single readings can be large or run the other way.
The categories you may choose from are 1 (yes) = active, 0 (no) = inactive

So what was the verdict on CCCCCC(CC)OC(=O)CCCOc1ccc(Cl)cc1Cl (stereo not given) in this test?
0 (no)

So what was the verdict on O=CN1CCCCC1 in this test?
0 (no)

So what was the verdict on N=C(N)N in this test?
0 (no)

So what was the verdict on CCCCNCC in this test?
0 (no)

So what was the verdict on N#CC1(N)CCCCC1 in this test?
0 (no)

So what was the verdict on Cc1ccc(Br)cc1 in this test?
0 (no)

So what was the verdict on CCN1CCN(C(=O)N[C@@H](C(=O)N[C@@H]2C(=O)N3C(C(=O)O)=C(CSc4nnnn4C)CS[C@H]23)c2ccc(O)cc2)C(=O)C1=O in this test?
0 (no)

So what was the verdict on CC/C=C\CCCCCCCCCCOC(C)=O in this test?
0 (no)

So what was the verdict on CCCCCCC(=O)c1ccccc1 in this test?
0 (no)

So what was the verdict on C=CC(C)(CCC=C(C)C)OC(=O)C(C)C (stereo not given) in this test?
0 (no)

So what was the verdict on CC(CC(=O)Cl)CC(C)(C)C (stereo not given) in this test?
0 (no)

So what was the verdict on CCOC(=O)CC in this test?
0 (no)

So what was the verdict on CC(CN1CC(=O)NC(=O)C1)N1CC(=O)NC(=O)C1 (stereo not given) in this test?
1 (yes)

So what was the verdict on CCCCCCCCC1CO1 (stereo not given) in this test?
0 (no)

So what was the verdict on COc1cc(OC)cc(OC)c1 in this test?
0 (no)

* * *

Assay: qHTS assay to identify small molecule agonists of the NFkB signaling pathway - cell viability counter screen (AID 1159515); further: on the % scale 0 is the no-effect control and ±100 the full control effect; nearly all actives have a fitted effect of over 55% in size
Settings: NFkB-bla ME-180 viability, CellTiter-Glo luminescence, 5 h; series mostly up to 61 µM
Records with an inconclusive call do not appear. The source made the active and inactive calls. Calls follow the shape of the full dose curve.
readout_label: activity, negative = cytotoxic

The following molecules have reported results that may help.
CC(O)CCCCn1c(=O)c2c(ncn2C)n(C)c1=O (configuration not stated); inactive
COc1cc(OC)cc(OC)c1; inactive
C=C(C)C(=O)OCCCC; inactive
CC(=O)OC1CCC(C(C)(C)C)CC1 (configuration not stated); inactive

Give the value of activity, negative = cytotoxic reported for the following: COC(=O)C(c1ccccc1Cl)N1CCc2sccc2C1 (configuration not stated)
inactive

Give the value of activity, negative = cytotoxic reported for the following: CC/C=C\CCCCCCCCCCOC(C)=O
inactive

Give the value of activity, negative = cytotoxic reported for the following: COc1cc2nc(N3CCN(C(=O)C4CCCO4)CC3)nc(N)c2cc1OC (configuration not stated)
inactive

* * *

Assay: qHTS RealTime-Glo MT Cell Viability Assay in HEK293 cells - 24 hour (AID 1224886); further: top concentration of the series differs between compounds; on the % scale 0 is the no-effect control and ±100 the full control effect; nearly all actives have a fitted effect of over 50% in size
Conditions: RealTime-Glo luminescence; series mostly up to 76.8 µM
Inconclusive results are not listed. Active and inactive are the calls of the source. Calls come from the whole dose curve; as a rule, active = well fitted cell-killing curve with a large enough effect in the repeat runs; inconclusive = weak or mixed curves, or effect the other way; inactive = flat fitted curve, though single readings scatter.
readout_label: activity change, negative = cytotoxicity

c1coc(Cn2cccc2)c1; inactive
CO/N=C(\C(=O)O)c1csc(NC(=O)CCl)n1; inactive
C=CC(=O)OCCOCCOCC; inactive
C=CCCCCCCCCCCCCCC; -1.45% [at 15.8 µM] (inactive)
COc1cc(OC)cc(OC)c1; inactive
O=C(CCBr)N1CCN(C(=O)CCBr)CC1; inactive
O=C(O)P(=O)(O)O; inactive
CNC(C)=O; inactive

Give the value of activity change, negative = cytotoxicity reported for the following: CC/C=C/CCCCCCCCCCOC(C)=O
inactive

Give the value of activity change, negative = cytotoxicity reported for the following: Cc1cccc(N)n1
inactive

Give the value of activity change, negative = cytotoxicity reported for the following: Cc1ccc(N)nc1
inactive

* * *

Target: Cytochrome P450 2C19 (Homo sapiens) (UniProt P33261)
Sequence (P33261 whole entry, looked up): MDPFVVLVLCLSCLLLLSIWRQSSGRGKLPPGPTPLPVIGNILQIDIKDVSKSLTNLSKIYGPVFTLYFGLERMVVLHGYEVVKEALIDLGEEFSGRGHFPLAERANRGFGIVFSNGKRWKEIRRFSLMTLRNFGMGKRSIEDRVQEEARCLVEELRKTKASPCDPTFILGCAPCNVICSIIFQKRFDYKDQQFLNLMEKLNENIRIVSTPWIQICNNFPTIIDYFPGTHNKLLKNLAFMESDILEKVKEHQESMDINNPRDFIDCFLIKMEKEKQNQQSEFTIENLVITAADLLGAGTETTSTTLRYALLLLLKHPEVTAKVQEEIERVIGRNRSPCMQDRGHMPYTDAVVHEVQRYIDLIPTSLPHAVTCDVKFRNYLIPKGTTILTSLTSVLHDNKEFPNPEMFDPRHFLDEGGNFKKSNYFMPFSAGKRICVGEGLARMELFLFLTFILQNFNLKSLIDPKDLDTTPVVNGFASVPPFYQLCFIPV
Assay: Cytochrome P450 Family 2 Subfamily C Member 19 (CYP2C19) small molecule antagonists: luciferase reporter qHTS assay (AID 1671197); further: nearly all actives have a fitted effect of over 65% in size
Conditions: P450-Glo CYP2C19 enzyme, luciferin luminescence, 1 h; series mostly up to 115 µM
Records with an inconclusive call do not appear. The source made the active and inactive calls. Calls follow the shape of the dose curve; as a rule, active = well fitted inhibition curve with a large enough effect in the repeat runs; inconclusive = weak or mixed curves; inactive = no such curve, though single readings can be large or run the other way.
The categories you may choose from are t = active, f = inactive

So what was the verdict on CC(C)=CCC/C(C)=C\C#N in this test?
t

So what was the verdict on CCCc1ccc(O)c(OC)c1 in this test?
f

So what was the verdict on O=P(O)(O)C(O)(Cc1cccnc1)P(=O)(O)O in this test?
f

So what was the verdict on CC(=O)Nc1ccc(S(=O)(=O)Nc2cc(C)on2)cc1 in this test?
f

So what was the verdict on CSC(=O)c1cccc2nnsc12 in this test?
t

So what was the verdict on C/C=C(\C)C(=O)OC/C=C(\C)CCC=C(C)C in this test?
f

So what was the verdict on Cc1cc2c(cc1CC(=O)c1sccc1S(=O)(=O)Nc1onc(C)c1Cl)OCO2 in this test?
t

* * *

Target: Nuclear receptor subfamily 1 group I member 2 (Homo sapiens) (UniProt O75469)
Sequence (O75469 whole entry, looked up): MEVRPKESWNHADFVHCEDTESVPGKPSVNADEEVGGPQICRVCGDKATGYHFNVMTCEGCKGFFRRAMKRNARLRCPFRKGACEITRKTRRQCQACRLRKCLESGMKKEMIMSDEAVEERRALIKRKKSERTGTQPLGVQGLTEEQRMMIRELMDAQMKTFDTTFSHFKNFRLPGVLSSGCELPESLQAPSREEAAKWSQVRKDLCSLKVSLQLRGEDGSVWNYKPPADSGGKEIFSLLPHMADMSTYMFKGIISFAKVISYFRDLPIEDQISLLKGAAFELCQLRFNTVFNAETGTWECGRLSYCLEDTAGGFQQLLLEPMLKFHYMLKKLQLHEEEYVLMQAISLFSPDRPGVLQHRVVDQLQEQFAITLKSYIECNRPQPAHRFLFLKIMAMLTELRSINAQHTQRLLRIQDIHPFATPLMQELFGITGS
Assay: Human pregnane X receptor (PXR) small molecule agonists, qHTS assay (AID 1346982); further: nearly all actives have a fitted effect of over 35% in size; on activation: on the % scale 0 is the no-effect control and ±100 the full control effect
Conditions: PXR-Luc HepG2, CYP3A4 luciferase reporter, 24 h; series mostly up to 92.4 µM
Inconclusive results are not listed. Calls of active or inactive are those of the source. Calls come from the whole dose curve; as a rule, active = well fitted activation curve with a large enough effect in the repeat runs; inconclusive = weak or mixed curves; inactive = no such curve, though single readings can be large or run the other way.
The categories you may choose from are yes (active), no (inactive)

So what was the verdict on CCCCCC(=O)CC in this test?
no

So what was the verdict on Cc1ccc2ccccc2n1 in this test?
no

So what was the verdict on CCCCCCCCCCCCCCCC/C=C/C1CC(=O)OC1=O (stereo not given) in this test?
no

So what was the verdict on O=C(O)COc1ccc2ccccc2c1 in this test?
no

So what was the verdict on CCCc1ccc(O)c(OC)c1 in this test?
no

So what was the verdict on CC(C)(C)C(=O)CC(=O)C(C)(C)C in this test?
no

So what was the verdict on C=CC(C)(CCC=C(C)C)OC(=O)C(C)C (stereo not given) in this test?
no

So what was the verdict on CC(C)OC(=O)C(C(=O)OC(C)C)=C1SC=CS1 in this test?
yes

So what was the verdict on CCOC(=O)CN1CCCC1=O in this test?
no

So what was the verdict on CN(C)CCC[C@@]1(c2ccc(F)cc2)OCc2cc(C#N)ccc21 in this test?
no

So what was the verdict on C/C=C(\C)C(=O)OC/C=C(\C)CCC=C(C)C in this test?
no

So what was the verdict on CCCCNCC in this test?
no

So what was the verdict on CC(C)(C)C(=O)NCCCC(=O)O in this test?
no

So what was the verdict on CCCCS in this test?
no

So what was the verdict on CC(=O)OC1CCC(C(C)(C)C)CC1 (stereo not given) in this test?
no

* * *

Biological target: Progesterone receptor (Homo sapiens) (UniProt P06401)
Sequence (P06401 whole entry, looked up): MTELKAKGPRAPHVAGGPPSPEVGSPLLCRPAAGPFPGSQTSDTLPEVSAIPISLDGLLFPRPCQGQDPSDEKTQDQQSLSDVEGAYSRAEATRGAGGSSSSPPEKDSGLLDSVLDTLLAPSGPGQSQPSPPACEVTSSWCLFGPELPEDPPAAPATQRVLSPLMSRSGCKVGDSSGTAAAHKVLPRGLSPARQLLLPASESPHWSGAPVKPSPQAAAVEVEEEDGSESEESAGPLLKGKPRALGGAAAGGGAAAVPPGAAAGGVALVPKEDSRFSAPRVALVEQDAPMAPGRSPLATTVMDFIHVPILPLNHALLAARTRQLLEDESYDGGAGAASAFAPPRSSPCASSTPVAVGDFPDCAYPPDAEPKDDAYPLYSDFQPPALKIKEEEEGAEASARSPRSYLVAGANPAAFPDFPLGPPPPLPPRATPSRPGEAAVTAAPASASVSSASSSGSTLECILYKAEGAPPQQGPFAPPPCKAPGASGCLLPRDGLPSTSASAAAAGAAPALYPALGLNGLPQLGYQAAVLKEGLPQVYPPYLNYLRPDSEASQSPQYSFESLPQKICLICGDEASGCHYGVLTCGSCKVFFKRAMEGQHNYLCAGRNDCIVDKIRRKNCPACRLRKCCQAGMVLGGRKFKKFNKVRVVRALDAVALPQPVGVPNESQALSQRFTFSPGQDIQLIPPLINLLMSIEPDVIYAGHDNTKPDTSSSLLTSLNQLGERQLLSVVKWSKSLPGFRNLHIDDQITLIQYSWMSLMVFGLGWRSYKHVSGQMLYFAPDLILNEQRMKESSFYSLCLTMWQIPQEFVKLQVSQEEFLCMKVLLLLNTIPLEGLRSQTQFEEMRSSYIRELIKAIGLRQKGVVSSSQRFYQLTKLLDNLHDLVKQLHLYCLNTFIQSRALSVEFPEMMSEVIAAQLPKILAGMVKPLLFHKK
Test: qHTS assay to identify small molecule agonists of the progesterone receptor (PR) signaling pathway (AID 1346784); further: nearly all actives have a fitted effect of over 30% in size
Settings: PR-UAS-bla HEK293T, beta-lactamase FRET ratio, 16 h; series mostly up to 92.4 µM
Results filed as inconclusive are left out. Active and inactive are the calls of the source. Calls come from the whole dose curve.
The categories you may choose from are 1 (yes) (active), 0 (no) (inactive)

So what was the verdict on CC/C=C\CCCCCCCCCCOC(C)=O in this test?
0 (no)

So what was the verdict on O=S(=O)(O)CC(O)CCl (centres undefined) in this test?
0 (no)

So what was the verdict on C[C@@H]1CCC[C@H](C)N1CCCC(O)(c1ccccc1)c1ccccn1 (some centres undefined) in this test?
0 (no)

So what was the verdict on C[C@H]1COc2c(C3(N)CC3)c(F)cc3c(=O)c(C(=O)O)cn1c23 in this test?
0 (no)

So what was the verdict on CN(C)CCC[C@@]1(c2ccc(F)cc2)OCc2cc(C#N)ccc21 in this test?
0 (no)

So what was the verdict on CCCCNCC in this test?
0 (no)

So what was the verdict on COC(=O)/C=C(\C)CCC=C(C)C in this test?
0 (no)

So what was the verdict on CC(CC(=O)Cl)CC(C)(C)C (centres undefined) in this test?
1 (yes)

So what was the verdict on C=C(C)C(=O)OCCOC1CC2CC1C1C=CCC21 (centres undefined) in this test?
0 (no)

So what was the verdict on CCCCC(CC)COC(=O)CC#N (centres undefined) in this test?
0 (no)

So what was the verdict on C/C(=N\O)c1ccc(OCC(=O)N2CCCCC2)cc1 in this test?
0 (no)

So what was the verdict on CN(C)c1cc(NC(=O)CNC(C)(C)C)c(O)c2c1C[C@H]1C[C@H]3[C@H](N(C)C)C(=O)C(C(N)=O)=C(O)[C@@]3(O)C(=O)C1=C2O in this test?
0 (no)

So what was the verdict on O=C(c1ccccc1)c1cccc(O)c1 in this test?
0 (no)

So what was the verdict on CN(C)CCc1c[nH]c2ccc(C[C@H]3COC(=O)N3)cc12 in this test?
0 (no)

So what was the verdict on CNC(C)=O in this test?
0 (no)

So what was the verdict on BrCCOc1ccccc1 in this test?
0 (no)

So what was the verdict on O=C(O)/C=C(\CC(=O)O)C(=O)O in this test?
0 (no)

So what was the verdict on c1coc(Cn2cccc2)c1 in this test?
0 (no)

So what was the verdict on CN1C(CCl)Nc2cc(Cl)c(S(N)(=O)=O)cc2S1(=O)=O (centres undefined) in this test?
0 (no)

So what was the verdict on CCCC(=O)C(CC)Sc1ccoc1C (centres undefined) in this test?
0 (no)

So what was the verdict on CCOC(=O)CC(C(C)=O)C(C)=O in this test?
0 (no)

So what was the verdict on O=Cc1ccc(C(=O)O)cc1 in this test?
0 (no)

So what was the verdict on CCc1ncc(C)[nH]1 in this test?
0 (no)

So what was the verdict on CCOCCOCCOC(C)=O in this test?
0 (no)

So what was the verdict on c1cc2ccc3ccc4ccc5cccc6c(c1)c2c3c4c56 in this test?
1 (yes)

So what was the verdict on O=S(=O)(O)c1ccc(Cl)cc1 in this test?
0 (no)

So what was the verdict on CC1(C)C(=O)C(C)(C)C1=O in this test?
0 (no)

So what was the verdict on COC(=O)c1cc(Cl)c(NC(C)=O)cc1OC in this test?
0 (no)

So what was the verdict on Cc1ccc(NC(N)=O)cc1 in this test?
0 (no)
